Target: human Cat S (Homo sapiens (Human))
Sequence (P25774 115-331): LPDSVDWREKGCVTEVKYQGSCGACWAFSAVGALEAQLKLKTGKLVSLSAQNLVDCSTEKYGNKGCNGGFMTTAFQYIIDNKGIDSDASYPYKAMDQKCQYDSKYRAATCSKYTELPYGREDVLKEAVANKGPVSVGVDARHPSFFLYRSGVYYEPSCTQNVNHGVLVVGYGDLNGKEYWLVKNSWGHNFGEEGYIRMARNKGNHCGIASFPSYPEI
Counter-ions that a name gives are not always drawn.
Property: IC50 (nM)

Here is how some molecules turned out for IC50.
{"Molecule": "CCOC(=O)N1CCC(N2CCC2C(=O)N2C[C@H](Sc3ccc(Cl)cc3)C[C@H]2C(=O)NC2(C#N)CC2)CC1 (stereo partly drawn)", "Reported Measurement": 121}
{"Molecule": "CCN1CCN(C2(C(=O)N3C[C@H](S(=O)(=O)c4ccccc4Cl)C[C@H]3C(=O)NC3(C#N)CC3)CC2)CC1", "Reported Measurement": 6.2}
{"Molecule": "CC1CCCCN1C1(C(=O)N2C[C@H](S(=O)(=O)c3ccccc3Cl)C[C@H]2C(=O)NC2(C#N)CC2)CC1 (stereo partly drawn)", "Reported Measurement": 0.9}

[a] N#CC1(NC(=O)[C@@H]2C[C@@H](S(=O)(=O)c3ccccc3Cl)CN2C(=O)C2(N3CCSCC3)CC2)CC1
[b] CCOC(=O)N1CCC(N2CCC2C(=O)N2C[C@H](S(=O)(=O)c3ccc(Cl)cc3)C[C@H]2C(=O)NC2(C#N)CC2)CC1 (stereo partly drawn)
Compare the recorded IC50 of a and b ; state which is larger. When you have decided, please share the label of that item.
b

[P] N#CC1(NC(=O)[C@@H]2C[C@@H](S(=O)(=O)c3ccc(Cl)cc3)CN2C(=O)C2(N3CCCCC3)CC2)CC1
[Q] N#CC1(NC(=O)[C@@H]2C[C@@H](S(=O)(=O)c3cccc(C(F)(F)F)c3)CN2C(=O)C2(N3CCCCC3)CC2)CC1
[R] CCOC(=O)N1CCC(N2CCC2C(=O)N2C[C@H](S(=O)(=O)c3cccc(C(F)(F)F)c3)C[C@H]2C(=O)NC2(C#N)CC2)CC1 (stereo partly drawn)
[S] CCOC(=O)N1CCC(N2CCC2C(=O)N2C[C@H](S(=O)(=O)c3ccccc3OC(F)(F)F)C[C@H]2C(=O)NC2(C#N)CC2)CC1 (stereo partly drawn)
Provide the items ranked by increasing IC50. Order the labels as requested and give them as your answer.
Q, P, R, S
(Q: 0.4 nM, P: 0.8 nM, R: 1.6 nM, S: 4.1 nM)

[a] N#CC1(NC(=O)[C@@H]2C[C@@H](S(=O)(=O)c3ccccc3Cl)CN2C(=O)C2CCN2C2CCOCC2)CC1 (stereo partly drawn) [Example 5, formate]
[b] CC(=O)N1CCC(N2CCC2C(=O)N2C[C@H](S(=O)(=O)c3ccccc3Cl)C[C@H]2C(=O)NC2(C#N)CC2)CC1 (stereo partly drawn)
[c] N#CC1(NC(=O)[C@@H]2C[C@@H](S(=O)(=O)c3ccccc3Cl)CN2C(=O)C2CCN2C2CCN(CC(F)(F)F)CC2)CC1 (stereo partly drawn)
Hello, I need these entries ordered by IC50, highest reading first. Thanks! Ranked list of labels, please, in the requested order.
c, b, a
(c: 3.9 nM, b: 1.3 nM, a: 0.8 nM)

[1] CCOC(=O)N1CCC(N2CCC2C(=O)N2C[C@H](S(=O)(=O)c3ccc(F)cc3Cl)C[C@H]2C(=O)NC2(C#N)CC2)CC1 (stereo partly drawn)
[2] Cc1nsc(N2CCC(N3CCC3C(=O)N3C[C@H](S(=O)(=O)c4ccccc4Cl)C[C@H]3C(=O)NC3(C#N)CC3)CC2)n1 (stereo partly drawn) [Example 4, formate]
// task: argmin of IC50 over [ 1 , 2 ] Your answer should be the label of the entry you select.
2
(2: 0.9 nM, 1: 1.5 nM)

* * *

This document collects pIC50 values reported for human Cat S (Homo sapiens (Human)).
pIC50: −log10 of the molar value.
Property: pIC50

Sample answers from the record:
{"Molecule": "CC1(C)CC(N2CCC2C(=O)N2C[C@H](S(=O)(=O)c3ccccc3Cl)C[C@H]2C(=O)NC2(C#N)CC2)CCO1 (stereo partly shown)", "Target Or System": "human Cat S (Homo sapiens (Human))", "Reported Measurement": 8.60}
{"Molecule": "Cc1ccc(S(=O)(=O)[C@@H]2C[C@@H](C(=O)NC3(C#N)CC3)N(C(=O)C3(N4CCCCC4)CC3)C2)cc1", "Target Or System": "human Cat S (Homo sapiens (Human))", "Reported Measurement": 9.40}
{"Molecule": "CCOC(=O)N1CCC(N2CCC2C(=O)N2C[C@H](S(=O)(=O)c3ccccc3OC)C[C@H]2C(=O)NC2(C#N)CC2)CC1 (stereo partly shown)", "Target Or System": "human Cat S (Homo sapiens (Human))", "Reported Measurement": 8.04}
{"Molecule": "N#CC1(NC(=O)[C@@H]2C[C@@H](S(=O)(=O)c3ccccc3Cl)CN2C(=O)C2(N3CCCC3)CC2)CC1", "Target Or System": "human Cat S (Homo sapiens (Human))", "Reported Measurement": 8.92}
{"Molecule": "CS(=O)(=O)N1CCN(C2(C(=O)N3C[C@H](S(=O)(=O)c4ccccc4Cl)C[C@H]3C(=O)NC3(C#N)CC3)CC2)CC1", "Target Or System": "human Cat S (Homo sapiens (Human))", "Reported Measurement": 8.60}

[P] N#CC1(NC(=O)[C@@H]2C[C@@H](S(=O)(=O)c3ccccc3Cl)CN2C(=O)C2(N3CCN(C(=O)C(F)(F)F)CC3)CC2)CC1
[Q] CC1CCN(C2(C(=O)N3C[C@H](S(=O)(=O)c4ccccc4Cl)C[C@H]3C(=O)NC3(C#N)CC3)CC2)CC1
Would you let me know which has the greater pIC50 value, P or Q ? Could you answer with the label of the item you picked?
Q

* * *

Let's go through some IC50 measurements on UniProt:P25774 together.
Property: IC50 (nM)

{"Compound": "N#CC1(NC(=O)[C@@H]2C[C@@H](S(=O)(=O)c3ccccc3Cl)CN2C(=O)C2CCN2C2CCC(F)(F)CC2)CC1 (stereo partly shown)", "IC50 / nM": 1}
{"Compound": "CCOC(=O)N1CCC(N2CCC2C(=O)N2C[C@H](Sc3ccccc3OC)C[C@H]2C(=O)NC2(C#N)CC2)CC1 (stereo partly shown)", "IC50 / nM": 1740}
{"Compound": "N#CC1(NC(=O)[C@@H]2C[C@@H](S(=O)(=O)c3cccc(Cl)c3)CN2C(=O)C2(N3CCCCC3)CC2)CC1", "IC50 / nM": 0.3}
{"Compound": "N#CC1(NC(=O)[C@@H]2C[C@@H](S(=O)(=O)c3ccccc3Cl)CN2C(=O)C2(N3CCOCC3)CC2)CC1", "IC50 / nM": 0.8}
{"Compound": "N#CC1(NC(=O)[C@@H]2C[C@@H](S(=O)(=O)c3ccccc3Cl)CN2C(=O)C2(N3CCCCC3)CC2)CC1", "IC50 / nM": 0.5}

[A] CCOC(=O)N1CCC(N2CCC2C(=O)N2C[C@H](S(=O)(=O)c3ccc(C)cc3)C[C@H]2C(=O)NC2(C#N)CC2)CC1 (stereo partly shown)
[B] CC1(C)CCCN(C2(C(=O)N3C[C@H](S(=O)(=O)c4ccccc4Cl)C[C@H]3C(=O)NC3(C#N)CC3)CC2)C1
Which is greater in IC50, the first item A or the second item B ? Answer with the label corresponding to your selection.
B
(B: 2.3 nM, A: 1.4 nM)

Each recorded value in this set is attributed to patent US8802665B2.
